All values here come from ChEMBL document CHEMBL1156573.

Tested target: UniProt P21554
Protocol description: Displacement of [3H]CP-55940 from human CB1 receptor expressed in CHO cells at 1 uM by liquid scintillation counting
Type: cell-based
# Activity per record follows
Output spec: scalar in %, unitless text.

O=C(N/N=C1\C(=O)N(CC2CCCCC2)c2ccccc21)c1ccccc1    99
CCCCCCN1C(=O)/C(=N\NC(=O)CCCCC)c2ccccc21    45.2

Next, consider the following compound.
// returns reported Activity for input CCCCN1C(=O)/C(=N\NC(=O)c2ccccc2)c2ccccc21 86

* * *

# Activity per record follows
Tested target: Cannabinoid receptor 1 (Homo sapiens) (UniProt P21554)
Sequence (P21554 whole entry): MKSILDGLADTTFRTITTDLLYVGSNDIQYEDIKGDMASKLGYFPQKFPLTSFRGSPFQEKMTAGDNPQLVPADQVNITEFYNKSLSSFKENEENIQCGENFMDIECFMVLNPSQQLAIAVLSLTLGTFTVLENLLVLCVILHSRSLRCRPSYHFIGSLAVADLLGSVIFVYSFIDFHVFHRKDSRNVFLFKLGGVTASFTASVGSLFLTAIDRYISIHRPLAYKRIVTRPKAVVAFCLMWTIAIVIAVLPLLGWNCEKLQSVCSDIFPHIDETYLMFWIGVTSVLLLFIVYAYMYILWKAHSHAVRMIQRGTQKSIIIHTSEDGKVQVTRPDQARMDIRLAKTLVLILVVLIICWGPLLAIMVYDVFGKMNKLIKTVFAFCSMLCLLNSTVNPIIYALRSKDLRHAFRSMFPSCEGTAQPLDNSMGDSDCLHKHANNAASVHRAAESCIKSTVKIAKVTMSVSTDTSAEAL
Protocol description: Displacement of [3H]CP-55940 from human CB1 receptor expressed in CHO cells at 10 uM by liquid scintillation counting
Type: cell-based

// below: answered compounds
CCCCCCN1C(=O)/C(=N\NC(=O)Nc2ccccc2)c2ccccc21    < 40%
O=C1/C(=N\NC(=S)Nc2ccccc2)c2ccccc2N1CCC1CCCCC1    < 40%

Next, consider the following compound.
// returns reported Activity for input O=C1/C(=N\NS(=O)(=O)c2ccccc2)c2ccccc2N1CCC1CCCCC1 < 40%

* * *

Tested target: UniProtKB P21554
Protocol description: Agonist activity at human CB1 receptor expressed in CHO cells by [35S]GTPgammaS assay relative to CP-55940
Assay type: functional, cell-based
Recorded metric: Emax

// below: answered compounds
O=C(N/N=C1\C(=O)N(Cc2ccc(Cl)cc2)c2ccccc21)c1ccccc1    72%
CCCCCCN1C(=O)/C(=N\NC(=O)Cc2ccccc2)c2ccccc21    71.9%

Next, consider the following compound.
Enter reported Emax observed with UniProtKB P21554 for CCCCCCN1C(=O)/C(=N\NC(=O)c2ccc(OC)cc2)c2ccccc21 71%
